molecular target: DCN1 (Homo sapiens (Human))
Sequence (Q96GG9 58-259): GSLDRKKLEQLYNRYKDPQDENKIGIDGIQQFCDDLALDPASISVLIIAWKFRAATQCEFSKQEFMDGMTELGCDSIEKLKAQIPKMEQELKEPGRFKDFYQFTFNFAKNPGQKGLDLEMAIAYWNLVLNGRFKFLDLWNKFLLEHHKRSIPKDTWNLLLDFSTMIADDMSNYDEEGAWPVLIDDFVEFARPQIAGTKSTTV
pIC50: −log10 of the molar value.
property.name: pIC50

Check out these entries, answers already filled in.
**Query** Requested read-out pIC50, target or system DCN1 (Homo sapiens (Human)), entry CCC(=O)N[C@@H](Cc1nc2ccc(C(C)C)cc2s1)C(=O)N[C@H](CNC(=O)CCl)C1CCCCC1
**Result** > 6.82

**Query** Tell me reported pIC50 for C=CC(=O)NC[C@H](Cc1cccnc1)NC(=O)[C@H](Cc1nc2ccc(C(C)C)cc2s1)NC(=O)CC , tested with DCN1 (Homo sapiens (Human)).
**Result** > 6.82

**Query** Short answer please: pIC50, DCN1 (Homo sapiens (Human)), entry C=C(CN1CCOCC1)C(=O)NC[C@H](Cc1cccnc1)NC(=O)[C@H](Cc1nc2ccc(C(C)C)cc2s1)NC(=O)CC
**Result** > 6.82

**Query** Quick check: pIC50 on DCN1 (Homo sapiens (Human)), item C=C(CN(C)C)C(=O)NC[C@@H](NC(=O)[C@H](Cc1nc2ccc(C(C)C)cc2s1)NC(=O)CC)C1CCCCC1 ?
**Result** > 6.82

**Query** // fetch DCN1 (Homo sapiens (Human)) pIC50 for C=C(CN1CCOCC1)C(=O)NC[C@H](Cc1ccccc1)NC(=O)[C@H](Cc1cn2cc(Cl)ccc2n1)NC(=O)CC
**Result** > 6.52

# ---- query molecule ----
**Query** Item C=C(CN1CCOCC1)C(=O)NC[C@H](CC1CCCCC1)NC(=O)[C@H](Cc1nc2ccc(Cl)cc2s1)NC(=O)CC with DCN1 (Homo sapiens (Human)) - pIC50?
**Result** 7.09
